# Tested on: MDA-MB-435
# assay-info: NCI tumour cell line growth inhibition, 48 h
measured-property: TGI

Below: 5 compounds and their reported TGI.
[
  {
    "compound": "Cc1ccc2nc3n[nH]c(N)c3nc2c1",
    "assay-target": "MDA-MB-435",
    "TGI": "> 100 µM"
  },
  {
    "compound": "O=C1CCC[C@H]2O[C@@H](COC(=O)c3ccccc3)C[C@H]2O1",
    "assay-target": "MDA-MB-435",
    "TGI": "> 100 µM"
  },
  {
    "compound": "COc1cc(OCc2cccc(-c3ccccc3)c2C)cc(OC)c1CN1CCCCC1C(=O)NCCOCCOCCN (stereo unspecified)",
    "assay-target": "MDA-MB-435",
    "TGI": "3.32 µM"
  },
  {
    "compound": "COc1ccc2cc(CNCCCCCCCCNCc3ccc4cc(OC)ccc4c3)ccc2c1",
    "assay-target": "MDA-MB-435",
    "TGI": "9.83 µM"
  },
  {
    "compound": "NC(=O)c1cccnc1",
    "assay-target": "MDA-MB-435",
    "TGI": "> 100 µM"
  }
]

### Prompt What value of measured TGI is listed for `COc1ccc(/C=C2/C(=O)N(C(=O)c3ccccc3O)N=C2C)cc1` ?
### Response > 100 µM

---

# Tested on: U251 CNS
# assay-info: NCI tumour cell line growth inhibition, 48 h
Cut-off 8 µM on TGI, inclusive. At or above means Y; below means N.

### Prompt Say whether `c1cc2c3c(c1)c1cc4c(cc1c[n+]3CC2)OCO4` shows TGI of 8 µM or more.
### Response Y

### Prompt Say whether O=C1C[C@@]23CCC4(CC2CCC[C@H]3O1)OCCO4 (some centres undefined) shows TGI of 8 µM or more.
### Response Y

### Prompt Say whether `O=C1/C(=C\c2ccc(Br)cc2)CCCc2ccccc21` shows TGI of 8 µM or more.
### Response Y

### Prompt Say whether CCCC1(CN2c3ccccc3Sc3ccc(Cl)cc32)CCN(CC)C1 (centres undefined) shows TGI of 8 µM or more.
### Response N

### Prompt Say whether `COc1ccc2c(c1)CN([C@@H](C)[C@H]1CC[C@H]3[C@@H]4CC[C@H]5C[C@@H](O)CC[C@]5(C)[C@H]4CC[C@]13C)CO2` shows TGI of 8 µM or more.
### Response N

### Prompt Say whether `COc1ccc(/C=C2/C(=O)N(C(=O)c3ccccc3O)N=C2C)cc1` shows TGI of 8 µM or more.
### Response Y

### Prompt Say whether COC(=O)C(=O)C(CC(=O)Nc1ccc(C)cc1)C(=O)OC (centres undefined) shows TGI of 8 µM or more.
### Response Y

### Prompt Say whether `C=C(CN1CCc2c([nH]c3ccccc23)C1)c1ccc(C(=O)Nc2ccccc2N)cc1` shows TGI of 8 µM or more.
### Response N

---

# Test system: NCI-H460 lung
# assay-info: NCI tumour cell line growth inhibition, 48 h
Listing: log10(TGI) of selected compounds
Field: value | Transform: log10 | Quantity: TGI | Unit: µM

### Prompt What value of measured log10(TGI) is listed for `CCCCCCNCCCNc1c2cc(OC)ccc2nc2cccc([N+](=O)[O-])c12` ?
### Response -0.74

### Prompt What value of measured log10(TGI) is listed for `Clc1ccc(-c2cc(-c3cc4cc(Br)ccc4nc3Cl)on2)cc1` ?
### Response 1.35

### Prompt What value of measured log10(TGI) is listed for `CCOC(=O)c1sc(-c2ccc(OS(=O)(=O)C[C@]34CCC(CC3=O)C4(C)C)c(C=O)c2)nc1C` ?
### Response 0.51

### Prompt What value of measured log10(TGI) is listed for CCCC1(CN2c3ccccc3Sc3ccc(Cl)cc32)CCN(CC)C1 (stereo not given) ?
### Response 0.56

### Prompt What value of measured log10(TGI) is listed for `C=C1C(=O)C23[C@H](O)C1CC[C@H]2[C@]12COC3(O)[C@@H](O)[C@@H]1C(C)(C)CC[C@@H]2O` ?
### Response 1.49

### Prompt What value of measured log10(TGI) is listed for `Cn1c(=O)n(C)c2cc(CNCCNc3ccnc4cc(Cl)ccc34)ccc21` ?
### Response 1.78

### Prompt What value of measured log10(TGI) is listed for `CC(=O)/C=C/c1ccc(Nc2c3ccccc3nc3occ(Cl)c23)cc1` ?
### Response 1.16

### Prompt What value of measured log10(TGI) is listed for `N#Cc1c(Cl)c2cccnc2n2c1nc1ccccc12` ?
### Response 1.29

---

# System: XF 498 CNS
# assay-info: NCI tumour cell line growth inhibition, 48 h
Listing: TGI of selected molecules
Reply with just the number (in µM).

[
  {
    "compound-smiles": "c1cc2c3c(c1)c1cc4c(cc1c[n+]3CC2)OCO4",
    "measured-property": "TGI",
    "unit-of-measurement": "µM",
    "number": 10.9
  }
]

Turning now to a further molecule:
### Prompt What value of measured TGI is listed for `O=C1C(CO)=C[C@H](O)[C@H]2O[C@@H]12` ?
### Response 359

---

Listing: TGI of selected molecules
# Tested on: ACHN renal
# assay-info: NCI tumour cell line growth inhibition, 48 h

Below: 3 molecules and their reported TGI.
[
  {
    "molecule": "COC(=O)C(C(=O)C(=O)Nc1ccc(C)cc1C)c1csc(-n2nc(-c3ccccc3)cc2-c2ccccc2)n1 (centres undefined)",
    "TGI": "> 100 µM"
  },
  {
    "molecule": "COc1ccc2cc(CNCCCCCCCCNCc3ccc4cc(OC)ccc4c3)ccc2c1",
    "TGI": "10.3 µM"
  },
  {
    "molecule": "CC[C@@H](CCCCC1CC[C@H]2CC(=O)C[C@@H]12)OC (some centres undefined)",
    "TGI": "> 100 µM"
  }
]

### Prompt What value of measured TGI is listed for CCCCCCC(O)CC[C@H]1CCC[C@@H](C)N1 (some centres undefined) ?
### Response > 100 µM

### Prompt What value of measured TGI is listed for `COc1ccc(O)c(C(=O)CCC(=O)O)c1` ?
### Response > 100 µM

### Prompt What value of measured TGI is listed for `CCn1cc(/C=C2\Oc3cc(OCC#N)ccc3C2=O)c2cc(OC)ccc21` ?
### Response > 100 µM

### Prompt What value of measured TGI is listed for `COc1ccc(C(=O)c2sc3nc(-c4ccccc4OC)ccc3c2N)cc1OC` ?
### Response > 100 µM

### Prompt What value of measured TGI is listed for CC(=O)OC(C(=O)[O][Sn]([CH3])([CH3])[CH3])c1ccccc1 (centres undefined) ?
### Response > 100 µM

### Prompt What value of measured TGI is listed for `Nc1ccc(-c2nc3ccc(F)cc3s2)cc1Cl` ?
### Response > 100 µM

### Prompt What value of measured TGI is listed for `N#Cc1c(Cl)c2cccnc2n2c1nc1ccccc12` ?
### Response 3.2 µM

---

# Test system: HS 578T breast
# assay-info: NCI tumour cell line growth inhibition, 48 h
measured-property: GI50

[
  {
    "compound": "CCCC1(CN2c3ccccc3Sc3ccc(Cl)cc32)CCN(CC)C1 (centres undefined)",
    "assay-target": "HS 578T breast",
    "result": "1.83 µM"
  }
]

### Prompt What value of measured GI50 is listed for `COc1ccc(C(=O)c2sc3nc(-c4ccccc4OC)ccc3c2N)cc1OC` ?
### Response 4.26 µM

### Prompt What value of measured GI50 is listed for `CN(Cc1ccc(F)cc1)c1ccc(CO)c(Cl)c1` ?
### Response 27.4 µM

### Prompt What value of measured GI50 is listed for COc1ccc(C2=NC(=O)NC2c2ccc(OC)cc2)cc1 (centres undefined) ?
### Response 7.18 µM

### Prompt What value of measured GI50 is listed for `c1ccc(-c2nc3n(c2-c2ccc4c(c2)OCO4)CCC3)nc1` ?
### Response 8.24 µM

### Prompt What value of measured GI50 is listed for `Cc1cc(N/N=C/c2nc(-c3ccc(Cl)cc3)oc2C)c2cc(Br)ccc2n1` ?
### Response 4.33 µM

### Prompt What value of measured GI50 is listed for `CCCN(CCC)c1ccc(C=O)c(Cl)c1` ?
### Response 22.9 µM

---

Listing: GI50 of selected compounds
# System: SF-295 CNS
# assay-info: NCI tumour cell line growth inhibition, 48 h

Below: 8 compounds and their reported GI50.
[
  {
    "compound": "Cc1cc(CCl)c(C)cc1CCl",
    "GI50": "840 nM"
  },
  {
    "compound": "O=C(c1ccc2ccccc2c1)c1nc2cc(F)ccc2[n+]([O-])c1C(F)(F)F",
    "GI50": "18300 nM"
  },
  {
    "compound": "CCCCCCNCCCNc1c2cc(OC)ccc2nc2cccc([N+](=O)[O-])c12",
    "GI50": "163 nM"
  },
  {
    "compound": "COc1cc(C2=NN(C(C)=O)C(c3cc(OC)c(OC)c(OC)c3)C2)ccc1O (centres undefined)",
    "GI50": "216 nM"
  },
  {
    "compound": "O=C(Nc1cccc2[nH]c(C(F)(F)F)nc12)c1cc(Cl)ccc1Cl",
    "GI50": "2230 nM"
  },
  {
    "compound": "COc1cc(OC)c2sc(-c3ccc(-n4cncc4-c4ccc(OC)c(OC)c4)cc3)nc2c1",
    "GI50": "7000 nM"
  },
  {
    "compound": "CCN1[C@@H](C(=O)NC23CCC(C(=O)O)(CC2)CC3)[C@H](c2cccc(Cl)c2F)[C@]2(C(=O)Nc3cc(Cl)ccc32)C12CCCCC2",
    "GI50": "2210 nM"
  },
  {
    "compound": "Nc1c(C(=O)c2cccc(C#CCN3CCCCC3)c2)cnn1-c1ccc(F)cc1",
    "GI50": "> 25000 nM"
  }
]

Turning now to a further compound:
### Prompt What value of measured GI50 is listed for `CCOc1cc(/C=C/C(=O)C(C(=O)/C=C/c2ccc(OC(=O)CNc3nc4ccccc4[nH]3)c(OCC)c2)C(=O)CNc2nc3ccccc3[nH]2)ccc1OC(=O)CNc1nc2ccccc2[nH]1` ?
### Response 7860 nM
